Molecular target: human CTPS1 (Homo sapiens, UniProt P17812)
Construct: FLAG (with GG linker); His8 (with GG linker); purchased Proteros biostructures GmbH
Sequence (P17812 1-591): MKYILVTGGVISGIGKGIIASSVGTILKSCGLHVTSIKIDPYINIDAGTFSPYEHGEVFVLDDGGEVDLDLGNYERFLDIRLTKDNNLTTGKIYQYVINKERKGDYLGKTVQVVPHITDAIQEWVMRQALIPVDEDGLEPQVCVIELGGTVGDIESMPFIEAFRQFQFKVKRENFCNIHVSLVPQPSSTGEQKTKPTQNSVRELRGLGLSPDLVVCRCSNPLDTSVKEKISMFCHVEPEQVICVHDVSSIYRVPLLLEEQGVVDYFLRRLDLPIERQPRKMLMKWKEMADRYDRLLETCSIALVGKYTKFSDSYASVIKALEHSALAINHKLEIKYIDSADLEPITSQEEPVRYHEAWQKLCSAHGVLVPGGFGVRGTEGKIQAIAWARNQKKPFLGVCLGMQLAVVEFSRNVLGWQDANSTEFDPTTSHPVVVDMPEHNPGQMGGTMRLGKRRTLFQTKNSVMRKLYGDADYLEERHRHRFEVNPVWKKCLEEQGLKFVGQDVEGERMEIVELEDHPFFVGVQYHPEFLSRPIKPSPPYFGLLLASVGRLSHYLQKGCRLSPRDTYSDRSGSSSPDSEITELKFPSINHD
Assay: Human CTPS1 enzyme inhibition, ADP-Glo Max assay
Format: biochemical
Settings: ADP-Glo Max assay; Table 10; read-out: Human CTPS1 Enzyme Inhibition, IC50 grouped by potency range (CTPS1)
measured attribute: IC50

In [3]: df
Out[3]:
                               entry_smiles          result
0  CCOc1cncc(-c2ccc(NC(=O)C(C)(C)c3csc(NS(=O)(=O)C4CC4)n3)cc2)c1        < 100 nM
1  CC(C)(C(=O)Nc1ccc(-c2ccccc2)nc1)c1csc(NS(=O)(=O)C2CC2)n1  100 to 1000 nM
2  CCOc1cncc(-c2ccc(NC(=O)C(C)(C)c3csc(NS(C)(=O)=O)n3)c(F)c2)n1        < 100 nM
3  CC(C)(C(=O)Nc1ccc(-c2cccnc2)cc1)c1csc(NS(=O)(=O)C2CCC2)n1  100 to 1000 nM

* * *

Target: human CTPS1 (Homo sapiens, UniProt P17812)
Construct: FLAG (with GG linker); His8 (with GG linker); purchased Proteros biostructures GmbH
Assay: RapidFire/MS-based enzyme selectivity assay (human CTPS1 versus CTPS2), CTPS1 isoform
Format: biochemical
Conditions: RapidFire/MS IC50 values of CTPS1 and CTPS2; Table 15
Source text: Human CTPS1 Versus CTPS2 Selectivity Assessment by RapidFire/MS Analysis. The enzyme inhibitory activities against each target isoform of interest may be determined for the compounds of the invention using an optimised RapidFire high-throughput mass spectrometry (RF/MS) assay format. […] In all cases, the enzyme converts UTP to CTP. […] Readout for data analysis may be calculated as the ratio between the peak area of the product CTP and the internal standard ^13C9-^15N3-CTP. […]
measured attribute: Selectivity (fold selectivity between CTPS1 and CTPS2)

In [3]: df
Out[3]:
                                   molecule                 result
0  CCOc1cncc(-c2ccc(NC(=O)C(OC)c3ccnc(NS(=O)(=O)C4CC4)n3)cc2)n1 (centres unmarked)      + (2-30 fold (+))
1  CCOc1cncc(-c2ccc(NC(=O)C(CC)c3ccnc(NS(=O)(=O)C4CC4)n3)cc2)n1 (centres unmarked)  ++ (>30-60 fold (++))
2  CCOc1cncc(-c2ccc(NC(=O)C(C)(CC)c3ccnc(NS(=O)(=O)C4CC4)n3)nc2)n1 (centres unmarked)   +++ (>60 fold (+++))
3  CC(C)Oc1cncc(-c2ccc(NC(=O)Cc3ccnc(NS(=O)(=O)C4CC4)n3)c(F)c2)n1  ++ (>30-60 fold (++))
4  CCOc1cncc(-c2ccc(NC(=O)C(CCOC)c3ccnc(NS(=O)(=O)C4CC4)n3)nc2)n1 (centres unmarked)   +++ (>60 fold (+++))
5  CCOc1cncc(-c2ccc(NC(=O)C(CCOC)c3ccnc(NS(=O)(=O)C4CC4)n3)c(F)c2)n1 (centres unmarked)   +++ (>60 fold (+++))
6  CCOc1cncc(-c2ccc(NC(=O)C(C)(C)c3nc(NS(=O)(=O)C4CC4)ncc3C)cc2)n1      + (2-30 fold (+))
7  CCC(C(=O)Nc1ccc(-c2cncc(C(F)(F)F)n2)cc1)c1ccnc(NS(=O)(=O)C2CC2)n1 (centres unmarked)      + (2-30 fold (+))

* * *

Molecular target: human CTPS1 (Homo sapiens)
Construct: FLAG (with GG linker); His8 (with GG linker); purchased Proteros biostructures GmbH
Sequence (P17812 1-591): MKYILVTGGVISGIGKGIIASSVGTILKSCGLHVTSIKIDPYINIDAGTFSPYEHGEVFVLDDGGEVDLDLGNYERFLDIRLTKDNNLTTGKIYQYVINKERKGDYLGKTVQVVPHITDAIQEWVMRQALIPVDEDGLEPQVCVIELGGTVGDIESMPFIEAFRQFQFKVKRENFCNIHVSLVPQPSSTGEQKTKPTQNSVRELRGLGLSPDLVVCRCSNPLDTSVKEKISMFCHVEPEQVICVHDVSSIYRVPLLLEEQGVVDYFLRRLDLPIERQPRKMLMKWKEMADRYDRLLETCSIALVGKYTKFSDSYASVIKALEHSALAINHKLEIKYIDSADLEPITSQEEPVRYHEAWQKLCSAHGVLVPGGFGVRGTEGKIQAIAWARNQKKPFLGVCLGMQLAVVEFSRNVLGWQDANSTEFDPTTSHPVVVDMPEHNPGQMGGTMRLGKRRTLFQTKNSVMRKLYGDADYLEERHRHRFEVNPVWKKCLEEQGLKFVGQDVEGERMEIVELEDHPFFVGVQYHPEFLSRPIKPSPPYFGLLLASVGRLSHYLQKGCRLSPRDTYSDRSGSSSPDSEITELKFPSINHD
Assay: RapidFire/MS-based enzyme selectivity assay (human CTPS1 versus CTPS2), CTPS1 isoform
Type: biochemical
Conditions: RapidFire/MS IC50 values of CTPS1 and CTPS2; Table 15
measured attribute: Selectivity (fold selectivity between CTPS1 and CTPS2)

>>> df
                                   molecule                result
0  CCOc1cncc(-c2ccc(NC(=O)C(CC)c3ccnc(NS(=O)(=O)C4CC4)n3)c(F)c2)n1 (centres unmarked) [P96]     + (2-30 fold (+))
1  CCOc1cncc(-c2ccc(NC(=O)C(CC)c3cncc(NS(=O)(=O)C4CC4)n3)cc2)n1 (centres unmarked) [P202]  +++ (>60 fold (+++))
2  CCOc1cncc(-c2ccc(NC(=O)C(CC)c3ccnc(NS(=O)(=O)C4CC4)n3)nc2)n1 (centres unmarked) [P88]  +++ (>60 fold (+++))
3  CC(C)(C(=O)Nc1ccc(-c2cccnc2)cc1)c1ccnc(NS(=O)(=O)C2CC2)n1 [P59]     + (2-30 fold (+))
4  CCOc1cncc(-c2ccc(NC(=O)C(C)(OC)c3cncc(NS(=O)(=O)C4CC4)n3)nc2)n1 (single isomer, unassigned) [P205a]  +++ (>60 fold (+++))
5  CCC(C(=O)Nc1ccc(-c2cncc(OC(C)C)n2)cn1)c1ccnc(NS(=O)(=O)C2CC2)n1 (centres unmarked) [P89]  +++ (>60 fold (+++))
6  CCC(C(=O)Nc1ccc(-c2cncc(OC)n2)cc1F)c1ccnc(NS(=O)(=O)C2CC2)n1 (centres unmarked) [P95]     + (2-30 fold (+))
7  CC(C)(C(=O)Nc1ccc(-c2cncc(C3CC3)n2)cc1F)c1ccnc(NS(=O)(=O)C2CC2)n1 [P128]     + (2-30 fold (+))

* * *

target: human CTPS1 (Homo sapiens, UniProt P17812); construct: FLAG (with GG linker); His8 (with GG linker); purchased Proteros biostructures GmbH; assay: RapidFire/MS-based enzyme selectivity assay (human CTPS1 versus CTPS2), CTPS1 isoform; assay type: biochemical; details: Table 16, human CTPS1 over human CTPS2, RapidFire/MS IC50 values
measured attribute: Selectivity (fold selectivity between CTPS1 and CTPS2)

>>> print(df.to_string())
                                    compound                 result
 0  O=C(NC1(c2csc(NS(=O)(=O)C3CC3)n2)CC1)c1ccc(-c2cncc(C(F)(F)F)n2)cc1   +++ (>60 fold (+++))
 1  CCOc1cncc(-c2ccc(C(=O)NC(CCOC)c3csc(NS(=O)(=O)C4CC4)n3)c(F)c2)n1 (stereo not shown) [R88]   +++ (>60 fold (+++))
 2  CCOc1cncc(-c2ccc(C(=O)NC3(c4csc(NS(=O)(=O)C5CC5)n4)CC3)c(F)c2)n1   +++ (>60 fold (+++))
 3  CC(C)Oc1cncc(-c2ccc(C(=O)NC(C)(C)c3csc(NS(=O)(=O)C4CC4)n3)c(F)c2)n1  ++ (>30-60 fold (++))
 4  CCOc1cncc(-c2ccc(C(=O)NC(CC)c3csc(NS(=O)(=O)C4CC4)n3)c(F)c2)n1 (single isomer, unassigned) [R70]   +++ (>60 fold (+++))
 5  Cc1cc(-c2cncc(C(F)(F)F)n2)ccc1C(=O)NC(C)(C)c1csc(NS(=O)(=O)C2CC2)n1  ++ (>30-60 fold (++))
 6  CCc1cncc(-c2ccc(C(=O)NC(CCOC)c3csc(NS(=O)(=O)C4CC4)n3)c(F)c2)n1 (stereo not shown)   +++ (>60 fold (+++))
 7  CCOc1cncc(-c2cnc(C(=O)NC(C)(C)c3csc(NS(=O)(=O)C4CC4)n3)c(F)c2)n1  ++ (>30-60 fold (++))
 8  CCOc1cncc(-c2ccc(C(=O)NC(C)(C)c3csc(NS(=O)(=O)C4CC4)n3)c(C(F)(F)F)c2)n1      + (2-30 fold (+))
 9  CCOc1cncc(-c2ccc(C(=O)NC(CC)c3csc(NS(=O)(=O)C4CC4)n3)c(F)c2)n1 (single isomer, unassigned) [R71]   +++ (>60 fold (+++))
10  CC(C)Oc1cncc(-c2ccc(C(=O)NC(C)(C)c3csc(NS(=O)(=O)C4CC4)n3)cc2)n1   +++ (>60 fold (+++))
11  CCOc1cncc(-c2ccc(C(=O)NC(CCOC)c3csc(NS(=O)(=O)C4CC4)n3)c(F)c2)n1 (single isomer, unassigned) [R92]   +++ (>60 fold (+++))
12  COCCC(NC(=O)c1ccc(-c2cncc(OC(C)C)n2)cc1F)c1csc(NS(=O)(=O)C2CC2)n1 (stereo not shown)   +++ (>60 fold (+++))
13  CCC(CC)(NC(=O)c1ccc(-c2cncc(C(F)(F)F)n2)cc1)c1csc(NS(=O)(=O)C2CC2)n1  ++ (>30-60 fold (++))
14  CCc1cncc(-c2ccc(C(=O)NC(C)(C)c3csc(NS(=O)(=O)C4CC4)n3)c(F)c2)n1  ++ (>30-60 fold (++))
15  COCCC(NC(=O)c1ccc(-c2cncc(C(F)(F)F)n2)cc1F)c1csc(NS(=O)(=O)C2CC2)n1 (stereo not shown)  ++ (>30-60 fold (++))
16  CCOc1cncc(-c2ccc(C(=O)NC(C)(C)c3csc(NS(=O)(=O)C4CC4)n3)c(OC)c2)n1  ++ (>30-60 fold (++))
17  COc1cc(-c2cncc(C(F)(F)F)n2)ccc1C(=O)NC(C)(C)c1csc(NS(=O)(=O)C2CC2)n1  ++ (>30-60 fold (++))
18  CCOc1cncc(-c2ccc(C(=O)N(C)C(CC)c3csc(NS(=O)(=O)C4CC4)n3)c(F)c2)n1 (racemic)      + (2-30 fold (+))
19  CCOc1cncc(-c2ccc(C(=O)NC(C)(C)c3csc(NS(=O)(=O)C4CC4)n3)cc2)n1   +++ (>60 fold (+++))
20  CCOc1cncc(-c2ccc(C(=O)NC(CCOC)c3csc(NS(=O)(=O)C4CC4)n3)c(F)c2)n1 (single isomer, unassigned) [R93]   +++ (>60 fold (+++))
21  CCOc1cncc(-c2ccc(C(=O)NC(C)(C)c3nc(NS(=O)(=O)C4CC4)sc3C)c(F)c2)n1  ++ (>30-60 fold (++))
22  CCOc1cncc(-c2ccc(C(=O)NCc3csc(NS(=O)(=O)C4CC4)n3)c(F)c2)n1  ++ (>30-60 fold (++))
23  CC(C)(NC(=O)c1ccc(-c2cncc(Cl)n2)cc1)c1csc(NS(=O)(=O)C2CC2)n1   +++ (>60 fold (+++))
24  CCOc1cncc(-c2ccc(C(=O)NC(C)(C)c3csc(NS(=O)(=O)C4CC4)n3)nc2)n1   +++ (>60 fold (+++))
25  CCC(NC(=O)c1ccc(-c2cncc(F)c2)cc1)c1csc(NS(=O)(=O)C2CC2)n1 (single isomer, unassigned) [R69]   +++ (>60 fold (+++))
26  Cc1cc(-c2cncc(C(F)(F)F)n2)ccc1C(=O)NC(C)(C)c1nc(NS(=O)(=O)C2CC2)sc1C      + (2-30 fold (+))
27  CC(C)(NC(=O)c1ccc(-c2cncc(C(F)(F)F)n2)cc1)c1nc(NS(=O)(=O)C2CC2)sc1Cl      + (2-30 fold (+))
28  CCOc1cncc(-c2ccc(C(=O)NC(C)(C)c3nc(NS(=O)(=O)C4CC4)sc3Cl)nc2)n1      + (2-30 fold (+))
29  CCOc1cncc(-c2ccc(C(=O)NC3(c4csc(NS(=O)(=O)C5CC5)n4)CC3)nc2)n1   +++ (>60 fold (+++))
30  CCC(NC(=O)c1ccc(-c2cncc(F)c2)cc1)c1csc(NS(=O)(=O)C2CC2)n1 (single isomer, unassigned) [R68]  ++ (>30-60 fold (++))
